Tested on: DENV2
ASSAY: Antiviral activity in DENV2-infected Huh7 cells, infectious virus in supernatant by plaque assay
Type: cell-based, dengue virus
TEST_PARAMETERS: Dengue virus, DENV2, Huh-7, read-out: IC50 of viral inhibition (infectious extracellular virus)
ENDPOINT: pIC50
Please treat pIC50 as minus the base-10 logarithm of the molar concentration.

Inquiry: Report measured pIC50; entry is O=C1c2c(O)ccc([N+](=O)[O-])c2C(=O)c2c([N+](=O)[O-])ccc(O)c21
Reply text: 6.23
